# TARGET_DESC: murine Syk tyrosine kinase protein (GST:Syk 6-242) (Mus musculus, UniProt P48025)
# Construct: made in house
# METHOD_SUMMARY: ADA method: displacement of the binding of scFv G4G11 with Syk (ELISA)
# MEASUREMENT_PARAMETERS: small molecules at 10 μM, scFv G4G11 100 nM; read-out: In vit. inhib.: mean inhibition % of the binding of scFv G4G11 with Syk in the ADA method
READOUT_KIND: inhibition at 10 µM (%)

- COc1ccc(C2C(C(=O)c3ccc(F)cc3)=C(O)C(=O)N2CCN2CCOCC2)c(OC)c1 (centres unmarked): 50
- CCn1c(CCC(=O)c2ccc(Cl)cc2)nnc1SCC(=O)Nc1ccc(Br)c(C)c1C: 20
- O=C(C1=C(O)C(=O)N(CCCN2CCOCC2)C1c1ccncc1)c1ccc2c(c1)OCCO2 (centres unmarked): 19
- COc1ccc(C2C(C(=O)c3ccc(Cl)cc3)=C(O)C(=O)N2CCN2CCOCC2)cc1OC (centres unmarked): 55
- CCN(CC)CCCN1C(=O)C(O)=C(C(=O)c2cc3cccc(OC)c3o2)C1c1ccccn1 (centres unmarked): 17
- O=C(C1=C(O)C(=O)N(Cc2cccnc2)C1c1cccc(Oc2ccccc2)c1)c1ccc(F)cc1 (centres unmarked): 71
- COc1ccc(C(=O)C2=C(O)C(=O)N(CCN3CCOCC3)C2c2cccnc2)c(C)c1 (centres unmarked): 67.5
- COc1ccc(C2C(C(=O)c3cccs3)=C(O)C(=O)N2CCN2CCOCC2)cc1OC (centres unmarked): 50
- CCOC(=O)c1sc(N2C(=O)C(O)=C(C(=O)c3ccccc3)C2c2ccc(OC)cc2)nc1C (centres unmarked): 50
- CCOC(=O)c1sc(N2C(=O)C(O)=C(C(=O)c3ccc(F)cc3)C2c2ccc(C)cc2)nc1C (centres unmarked): 71
- COc1cccc(C(=O)N(Cc2cc3ccc(C)cc3nc2C)c2ccccc2OC)c1: 30
- CCN(CC)CCN1C(=O)C(O)=C(C(=O)c2ccc(C)cc2)C1c1cc(OC)ccc1OC (centres unmarked): 54
- COc1ccccc1C1C(C(=O)c2cc(C)ccc2C)=C(O)C(=O)N1CCN1CCOCC1 (centres unmarked): 72
- Cc1ccc(-c2nnc(N3CCN(C(=O)CSc4nc(C)cc(C)n4)CC3)c3ccccc23)cc1: 11
- CN(C)S(=O)(=O)c1ccc(C(=O)C2=C(O)C(=O)N(CCN3CCOCC3)C2c2ccccc2)cc1 (centres unmarked): 50
- O=C(Nc1cccc2ccccc12)OCCn1nnnc1C1(N2CCOCC2)CCCCC1: 27
- COc1cccc(C2C(C(=O)c3ccc(C)cc3)=C(O)C(=O)N2CCCN2CCOCC2)c1 (centres unmarked): 79.5
- O=C(Nc1ccccc1C(=O)N1CCCC1)c1ccc(CN2CCc3ccccc3C2)cc1: 25
- COc1cccc(C2C(C(=O)c3cc(C)ccc3C)=C(O)C(=O)N2CCCN2CCOCC2)c1OC (centres unmarked): 42
- COc1cccc(C2C(C(=O)c3ccc(F)cc3)=C(O)C(=O)N2CCCN2CCOCC2)c1 (centres unmarked): 57

====

Entries annotated with measured IC50
# System: RBL-2H3 cells
# METHOD_SUMMARY: cells
# Assay type: cell-based, rat
# MEASUREMENT_PARAMETERS: Rattus norvegicus; RBL-2H3 cells; read-out: Degran. IC50: concentration inhibiting mast cell degranulation by 50%
READOUT_KIND: IC50

• O=C(C1=C(O)C(=O)N(CCCN2CCOCC2)C1c1ccccc1F)c1ccc2c(c1)OCO2 (stereo not drawn) = ~10 µg/mL
• COc1ccc(OC)c(C2C(C(=O)c3ccc(F)cc3)=C(O)C(=O)N2CCCN2CCOCC2)c1 (stereo not drawn) = > 10 µg/mL
• COc1cccc(C2C(C(=O)c3ccc(Cl)cc3)=C(O)C(=O)N2CCN2CCOCC2)c1 (stereo not drawn) = > 10 µg/mL
• CCN(CC)CCCN1C(=O)C(O)=C(C(=O)c2cc3cccc(OC)c3o2)C1c1ccccn1 (stereo not drawn) = ~10 µg/mL
• COc1ccc(C)cc1NC(=O)CN(c1ccc(C)cc1)S(=O)(=O)c1ccc(OC)c(OC)c1 = > 10 µg/mL
• CCOc1ccc(NC(=O)CC2C(=O)N(c3ccc(OC)cc3)C(=S)N2CCN2CCOCC2)cc1 (stereo not drawn) = ~7 µg/mL
